Catalogue of Phage binding ELISA signal, Anti-PSMA Fab readings, one per entry.
- Target system: T1, PSMA Fab (biotinylated (site not stated))
- T1 construct: Biotinylated PSMA Fab captured on neutravidin plates in the phage ELISA; also called Anti-PSMA Fab; 006 PSMA Fab
- Test details: clonal phage ELISA; biotinylated PSMA Fab on neutravidin plate; anti-M13 HRP detection; blocking buffer alone
Assay metric: Phage binding ELISA signal, Anti-PSMA Fab

[[record]]
binder = "YEKWCTPTWMCSWL [Phage-2446]"
reported_value = 1.29

[[record]]
binder = "VVHWCTPAWMCYDM [Phage-2441]"
reported_value = 1.3

[[record]]
binder = "MPKWCTPSWMCSPS [Phage-2436]"
reported_value = 1.31

[[record]]
binder = "EVKWCIPAWMCVED [Phage-2444]"
reported_value = 1.3

[[record]]
binder = "LHKLCTPTWMCEGF [Phage-2442]"
reported_value = 1.3

[[record]]
binder = "PAKWCVPSWMCSEI [Phage-2440]"
reported_value = 1.31

[[record]]
binder = "LERWCIPSWMCTED [Phage-2445]"
reported_value = 1.3

[[record]]
binder = "ESKWCIPEWMCEQR [Phage-2448]"
reported_value = 1.29

